- Tested on: CP215
- MEASUREMENT NOTES: qHTS profiling for inhibitors of Plasmodium falciparum proliferation (AID 504749); also: nearly all actives have a fitted effect of over 60% in size
- MEASUREMENT CONDITIONS: P. falciparum in erythrocytes, SYBR Green DNA, 72 h; series mostly up to 28.7 µM
Records with an inconclusive call do not appear. Activity calls are given as the source filed them. Calls follow the shape of the dose curve; as a rule, active = well fitted inhibition curve with a large enough effect; inconclusive = small, poorly fitted or top-dose-only effect; inactive = flat fitted curve, though single readings scatter. Peptide text beside a SMILES is read from it.
Form entry, call: pick from true (1) = active, false (0) = inactive

Field: example entries. Status: answers known.
{"columns": ["MOLECULE", "CATEGORY LABEL"],
 "data": [
  ["COc1ccc2c3c1O[C@H]1C[C@@H](O)C=C[C@@]31CCN(C)C2", "false (0)"],
  ["CC1=C(/C=C/C(C)=C/C=C/C(C)=C/C=C/C=C(C)/C=C/C=C(C)/C=C/C2=C(C)C(=O)CCC2(C)C)C(C)(C)CCC1=O", "false (0)"],
  ["CO[C@H]1C[C@@H]2CC[C@@H](C)[C@@](O)(O2)C(=O)C(=O)N2CCCC[C@H]2C(=O)O[C@H]([C@H](C)C[C@@H]2CC[C@@H](OCCO)[C@H](OC)C2)CC(=O)[C@H](C)/C=C(\\C)[C@@H](O)[C@@H](OC)C(=O)[C@H](C)C[C@H](C)/C=C/C=C/C=C/1C", "true (1)"],
  ["CN(C)CCCN1c2ccccc2C(C)(C)c2ccccc21", "false (0)"],
  ["CCCCCCCCCCCCCC[n+]1ccc(C)cc1", "true (1)"],
  ["CO[C@H](C(=O)[C@@H](O)[C@@H](C)O)C1Cc2cc3cc(O[C@H]4C[C@@H](O[C@H]5C[C@@H](O)[C@H](O)[C@@H](C)O5)[C@@H](O)[C@@H](C)O4)c(C)c(O)c3c(O)c2C(=O)[C@H]1O[C@H]1C[C@@H](O[C@H]2C[C@@H](O[C@H]3C[C@](C)(O)[C@H](O)[C@@H](C)O3)[C@H](O)[C@@H](C)O2)[C@H](O)[C@@H](C)O1 (stereo not given in full)", "true (1)"],
  ["CC(NNC(=O)c1ccccc1)c1ccccc1 (stereo not given)", "false (0)"],
  ["CCOC(C)=O", "false (0)"]
]}

Query string: // param item: `CCCC(=O)O[C@]1(C(=O)CCl)[C@H](C)C[C@@H]2[C@H]3CCC4=CC(=O)C=C[C@]4(C)[C@@]3(F)C(=O)C[C@@]21C` ; yields the recorded call
Result string: true (1)

Query string: Just curious, what result did CC(=O)N[C@@H](CC(=O)O)C(=O)N[C@@H](CCC(=O)O)C(=O)O (Ac-Asp-Glu-OH) get here?
Result string: false (0)

Query string: Per the assay record, what outcome was assigned to `COC(=O)CCC(=O)CN` ?
Result string: false (0)

Query string: What classification did `CC1(C)S[C@@H]2[C@H](NC(=O)[C@@H](NC(=O)N3CCNC3=O)c3ccccc3)C(=O)N2[C@H]1C(=O)O` end up with in this test?
Result string: false (0)

Query string: Returns: the outcome recorded for `CCNC(=O)[C@@H]1CCCN1C(=O)[C@H](CCCN=C(N)N)NC(=O)[C@H](CC(C)C)NC(=O)[C@@H](Cc1c[nH]c2ccccc12)NC(=O)[C@H](Cc1ccc(O)cc1)NC(=O)[C@H](CO)NC(=O)[C@H](Cc1c[nH]c2ccccc12)NC(=O)[C@H](Cc1cnc[nH]1)NC(=O)[C@@H]1CCC(=O)N1` in this assay.
Result string: true (1)

Query string: Called result for `CCCCC/C=C\C/C=C\CCCCCCCC(=O)O`
Result string: false (0)

Query string: Which result was noted for this molecule in the test: CCC(=O)NCCC1CCc2ccc3c(c21)CCO3 (stereo not given)
Result string: false (0)
